Quick record: Ki, Carbonic anhydrase 9 (Homo sapiens).
reported-metric: Ki (nM)

Before answering, review these 8 worked examples.
COC(=O)CNc1nc(Cl)nc(Nc2ccc(S(N)(=O)=O)cc2)n1
8.2
CC(Nc1nc(NCCc2ccc(S(N)(=O)=O)cc2)nc(NC(C)C(=O)O)n1)C(=O)O (racemic)
8.4
NS(=O)(=O)c1ccc(CCNc2nc(NC(CO)C(=O)O)nc(NC(CO)C(=O)O)n2)cc1 (racemic)
9
NS(=O)(=O)c1ccc(Nc2nc(NCCC(=O)O)nc(NCCC(=O)O)n2)cc1
8.9
COC(=O)CNc1nc(NCC(=O)OC)nc(NCc2ccc(S(N)(=O)=O)cc2)n1
9.2
NS(=O)(=O)c1ccc(Nc2nc(Cl)nc(NCCO)n2)cc1
0.75
NS(=O)(=O)c1ccc(CCNc2nc(Cl)nc(NC(Cc3ccc(O)c(O)c3)C(=O)O)n2)cc1 (racemic)
91
CC(Nc1nc(Cl)nc(Nc2ccc(S(N)(=O)=O)cc2)n1)C(=O)O (racemic)
0.96

(a) COC(=O)CNc1nc(NCC(=O)OC)nc(Nc2ccc(S(N)(=O)=O)cc2)n1
(b) CC(C)(C)[Si](C)(C)OCCOc1nc(Cl)nc(Nc2ccc(S(N)(=O)=O)cc2)n1
Given the listed items, does a or b have the lesser reported Ki? Please indicate the selected item by its label. a
(a: 9.4 nM, b: 113 nM)

Data credit: ChEMBL document CHEMBL1811871
